Assay: NCI Yeast Anticancer Drug Screen. Data for the sgs1 mgt1 strain (AID 161);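 note: 0% = growth of cultures given vehicle only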
Settings: S. cerevisiae sgs1 mgt1 strain, at 50.0 µM, active compounds read high
About 79,000 compounds went through this panel and 15% of them were active in at least one assay; those are over-represented in the sample as a whole.
endpoint.name: growth inhibition (%)
Report as a plain number; the unit % is understood.

Solved cases below.
{"molecule": "CCOc1c(N=Nc2cccc(Cl)c2)c(-c2ccccc2)nn1C(N)=S", "readout.units": "%", "growth inhibition": -24.2}
{"molecule": "O=C(OCc1ccccc1CN1CCCCC1)c1ccc([N+](=O)[O-])cc1Cl", "readout.units": "%", "growth inhibition": 0.85}
{"molecule": "CCOC(=O)C1C(=O)C(=O)N(C)C1c1ccccc1 (centres undefined)", "readout.units": "%", "growth inhibition": 8.1}

Ask | Supply reported growth inhibition belonging to this molecule: `NCC=C1C2CC3CC(C2)CC1C3`
Reply | 1.4

Ask | For the molecule `COC(=O)C1(COC(C)=O)CC1` , report growth inhibition.
Reply | 6

Ask | Output measured growth inhibition for this item: c1ccc(CC(c2cccc3ccccc23)N2CCOCC2)cc1 (centres undefined)
Reply | 39.7

Ask | Complete the entry with growth inhibition for `COC(=O)Cc1c(C(C)=O)[nH]c2ccccc12`
Reply | 4.35

Ask | Kindly indicate its recorded growth inhibition. Item: CC1(C)OC2OC(C3CC3)C(OCc3ccccc3)C2O1 (centres undefined)
Reply | -7.55

Ask | Give recorded growth inhibition. `CCOP(=O)(CCP(=O)(CCP(=O)(OCC)OCC)CCP(=O)(OCC)OCC)OCC`
Reply | -8.05

Ask | // fetch growth inhibition given entry `CC(C)=NNC(=O)c1n[nH]c(C)c1N=NN(C)C`
Reply | 6.5

Ask | Give growth inhibition for the following molecule: `Brc1ccccc1N=Nc1ccccc1Br`
Reply | 0.6

Ask | Look up and report measured growth inhibition for this entry: `C=CCc1cc(C(=O)C(=O)c2cc(CC=C)c(OC(C)=O)c(OC)c2)cc(OC)c1OC(C)=O`
Reply | 6.45

Ask | # return recorded growth inhibition for input `COc1ccc(-c2c(C#N)c(N)nc(C)c2-c2ccccc2)cc1`
Reply | -6.85

Ask | Retrieve growth inhibition measured for `Cc1cccc(C)c1N=Nc1ccc(O)c(CN(C)C)c1` and print it.
Reply | -12.1

Ask | In one line, give reported growth inhibition of the entry CCCCCCC1N(C(C#N)c2ccccc2)CCCN1C(C#N)c1ccccc1 (centres undefined) .
Reply | 16.6

###

Assay: NCI Yeast Anticancer Drug Screen. Data for the mlh1 rad18 strain (AID 175)
Details: S. cerevisiae mlh1 rad18 strain growth inhibition; at 50.0 µM
Compounds without any hit were thinned out: in the full panel of roughly 79,000, 15% have a hit. Activity calls are given as the source filed them. Cut-off read from the data, not from the text of the source: active = growth inhibition above about 70%; inactive = the rest.
Returns: one label drawn from TRUE = active, FALSE = inactive

Below are worked cases with known answers.
{"compound": "O=C(Nc1ccc(Br)cc1)c1ccccc1", "label.class": "FALSE"}
{"compound": "CCOc1ccc(NC(=O)C(Br)C(Br)C(=O)O)cc1 (centres undefined)", "label.class": "TRUE"}
{"compound": "CCOC1C(=O)C=COC1C(C)C (centres undefined)", "label.class": "FALSE"}

Ask | Recorded test call requested for `S=c1o[nH]c(-c2ccccc2)c1C=Nc1ccccc1`
Reply | FALSE

Ask | Query: recorded result category for `NC(N)=NS(=O)(=O)c1ccc(N=Cc2c3ccccc3nc3ccccc23)cc1` in this test
Reply | TRUE

Ask | Write down the call the test reported for this compound. Item: CCOC(=O)CC(C)C(Br)(C(=O)OCC)C(=O)OCC (centres undefined)
Reply | TRUE

Ask | Returns: the outcome recorded for `CCCC(=O)OCc1ccc(Cl)cc1Cl` in this assay.
Reply | FALSE

Ask | Record lookup: outcome of this test for `CCCCSc1nc2c(=O)n(C)c(=O)n(C)c2n1C` ?
Reply | FALSE

Ask | Returns: the outcome recorded for `COc1ccc(CCCNC(=O)c2cc(OC)c(OC)cc2CCO)cc1OC` in this assay.
Reply | FALSE

###

Assay: NCI Yeast Anticancer Drug Screen. Data for the cln2 rad14 strain (AID 165);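 note: 0% = growth equal to vehicle treated cultures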
Details: S. cerevisiae cln2 rad14 strain, at 50.0 µM, active compounds read high
Compounds without any hit were thinned out: in the full panel of roughly 79,000, 15% have a hit.
endpoint.name: growth inhibition (%)
# unit: % | format: bare number

Record excerpt, results attached:
{"compound": "O=C1c2cc(O)c(O)cc2C(=O)c2cc3c(cc21)OCO3", "assay.result": -11.6}
{"compound": "CCCC(CCC)C(=O)OCC(=O)c1ccc(-c2ccccc2)cc1", "assay.result": -43.9}
{"compound": "CCCCCCCCCCCCCCCCCCCCCC(=O)O", "assay.result": -28.3}
{"compound": "CC(=O)CC(=O)OC1CCCC(C)C1 (configuration not stated)", "assay.result": -39.4}
{"compound": "CC1(C)COCOC1c1ccccc1 (configuration not stated)", "assay.result": -11.8}

Ask | Return growth inhibition for the following compound: `Cc1cc2nc(/C(C#N)=C/c3cc(Cl)cc(Cl)c3O)[nH]c2cc1C`
Reply | 28.1

Ask | Answer with reported growth inhibition of c1ccc(C2=NCC(c3ccccc3)(C3(c4ccccc4)SCCCS3)O2)cc1 (configuration not stated)
Reply | -13.8

Ask | Answer with reported growth inhibition of c1ccc2c(c1)CC1C3c4ccccc4C(c4ccccc43)C1C2 (configuration not stated)
Reply | 8.35

Ask | Please look at this compound and report its growth inhibition: `COc1cc(C(CC(=O)O)CC(=O)O)cc(OC)c1OC`
Reply | 7.05

Ask | Supply growth inhibition value. Item: `CN(C)Cc1c(-c2ccc(Br)cc2)oc(-c2ccc(Br)cc2)c1Br`
Reply | -10.4

Ask | Tell me growth inhibition reported for `CCOC(=O)CN=NNc1ccccc1C(C)=O`
Reply | -3.3

Ask | Please give the documented growth inhibition of `CSc1nc(N)cc(Cl)n1`
Reply | 5.85

###

Measured growth inhibition accompanies every entry in the list below.
Test: NCI Yeast Anticancer Drug Screen. Data for the mlh1 rad18 strain (AID 175)
Conditions: S. cerevisiae mlh1 rad18 strain growth inhibition; at 50.0 µM; active compounds read high
The panel holds about 79,000 compounds, 15% with a hit somewhere; the sample as a whole holds those more often.
Output spec: scalar in %, unitless text.

See these solved cases before continuing.
{"compound": "CCCN(CCC)S(=O)(=O)c1ccc(NC(=O)Oc2ccc([N+](=O)[O-])cc2)cc1", "growth inhibition, %": 34.4}
{"compound": "CCCCCCCCCCCCCCCCC(CCCCCCCCCCCCCCCC)c1ccccc1", "growth inhibition, %": 18.6}
{"compound": "CC(=O)OC1CC(OC(C)=O)C(OC(C)=O)CC1OC(C)=O (stereo unspecified)", "growth inhibition, %": 12.6}
{"compound": "CCN(CC)CCCC(C)Nc1c2ccc(Cl)cc2nc2c(Cl)cc(Cl)cc12 (stereo unspecified)", "growth inhibition, %": -8.85}
{"compound": "CCCCCCOC(=O)/C=C1/OC(=O)c2ccccc21", "growth inhibition, %": -16.4}

Ask | Please give measured growth inhibition of the following entry: C=C1C(=O)O[C@H]2C3OC3(C)CC/C=C(/C(=O)OC)[C@@H](OC(C)=O)[C@H](OC(=O)C3(C)OC3C)[C@H]12 (stereo partly specified)
Reply | 8.85

Ask | Identify measured growth inhibition associated with `CCC(=O)[C@@]1(OC(C)=O)CC[C@H]2[C@@H]3CCC4=CC(=O)CC[C@]4(C)[C@H]3CC[C@@]21C`
Reply | 16

Ask | Note growth inhibition for the compound shown: `N#Cc1c(F)c(F)c(Oc2c(F)c(F)c(F)c(F)c2F)c(F)c1Oc1c(F)c(F)c(F)c(F)c1F`
Reply | 5.8

###

Assay: NCI Yeast Anticancer Drug Screen. Data for the mlh1 rad18 strain (AID 175)
Details: S. cerevisiae mlh1 rad18 strain growth inhibition; at 50.0 µM; active compounds read high
Compounds without any hit were thinned out: in the full panel of roughly 79,000, 15% have a hit.
Assign yes whenever growth inhibition does not fall below 10%; assign no whenever it does.

Worked cases, answers included:
{"compound": "CCCCCCCCCCCCOc1ccc(F)cc1C", "label.class": "yes"}
{"compound": "COC(=O)C(Cc1cc(OC)c(OC)c(OC)c1)(NC(=O)c1ccccc1)P(=O)(OC)OC (stereo not drawn)", "label.class": "no"}
{"compound": "c1ccc(CC(c2cccc3ccccc23)N2CCOCC2)cc1 (stereo not drawn)", "label.class": "yes"}

Ask | Kindly determine if growth inhibition recorded for Nc1cc2c(cc1I)-c1ccccc1C2O (stereo not drawn) is above or exactly 10%.
Reply | no

Ask | Decide: is the reported value of growth inhibition for O=C(O)C1C2C=CC(O2)C1C(=O)Nc1ncccn1 (stereo not drawn) equal to or greater than 10%?
Reply | no

Ask | Is growth inhibition at least 10%? Consider `Cc1cccc(NC(=S)NCCc2ccccn2)c1`
Reply | no

Ask | Could you please find out whether `OCC1CCCCCCCCCC1` has growth inhibition that meets 10% or exceeds it?
Reply | yes

Ask | Hi, just wondering whether `CC(=O)Nc1cc2c(cc1Br)Cc1cc(Br)ccc1-2` shows growth inhibition of 10% or higher.
Reply | no

Ask | Is reported growth inhibition greater than or equal to 10% here: `O=[N+]([O-])c1ccc(C=Nc2ccccc2)cc1`
Reply | yes
